testSystem: NUDT5 (Homo sapiens)
assaySummary: NanoBRET NUDT5 target engagement (TE) assay in HEK293 cells
Type: cell-based
Design: expressed in transfected cells; host or cells: HEK293
appliedConditions: read-out: EC50 (nM) TE (4h); HEK293, 4 h, Supplementary Table 2
measurementName: EC50 (nM)
Write the number in nM without appending the unit.

EC50 recorded for this compound, Cc1ncsc1-c1ccc(CNC(=O)C2CC(O)CN2C(=O)C(NC(=O)COCCOCCCCCCC(=O)N2CCN(c3nc4c(c(=O)n(C)c(=O)n4C)n3Cc3nnc(-c4ccc(Cl)c(Cl)c4)o3)CC2)C(C)(C)C)cc1 (stereo not shown) , is 2000

====

Listing: EC50 of selected molecules
testSystem: NUDT5 (Homo sapiens, UniProt Q9UKK9)
assaySummary: NanoBRET NUDT5 target engagement (TE) assay in HEK293 cells
Format: cell-based
Set-up: expressed in transfected cells; host or cells: HEK293
appliedConditions: HEK293 cells, Supplementary Fig. 6B; read-out: NUDT5 NanoBRET target engagement EC50
Enter your answer as a number in nM; do not include the unit.

molecule	testSystem	EC50 / nM
CN1C(=O)CCC(N2C(=O)c3ccc(N4CCN(CC5CCN(C(=O)N6CCN(c7nc8c(c(=O)n(C)c(=O)n8C)n7Cc7nnc(-c8ccc(Cl)c(Cl)c8)o7)CC6)CC5)CC4)cc3C2=O)C1=O (stereo not drawn) [dNUDT5nc]	NUDT5 (Homo sapiens, UniProt Q9UKK9)	28
Cn1c(=O)c2c(nc(N3CCNCC3)n2Cc2nnc(-c3ccc(Cl)c(Cl)c3)o2)n(C)c1=O [TH5427, reference compound]	NUDT5 (Homo sapiens, UniProt Q9UKK9)	3

# input for lookup
Record summary for Cn1c(=O)c2c(nc(N3CCN(C(=O)N4CCC(CN5CCN(c6ccc7c(c6)C(=O)N(C6CCC(=O)NC6=O)C7=O)CC5)CC4)CC3)n2Cc2nnc(-c3ccc(Cl)c(Cl)c3)o2)n(C)c1=O (stereo not drawn) [dNUDT5] : reported EC50 = 37

====

testSystem: NUDT5 and the respective E3 ligase (Homo sapiens, UniProt P40337+Q9UKK9)
Sequence (P40337 whole entry, one chain of several): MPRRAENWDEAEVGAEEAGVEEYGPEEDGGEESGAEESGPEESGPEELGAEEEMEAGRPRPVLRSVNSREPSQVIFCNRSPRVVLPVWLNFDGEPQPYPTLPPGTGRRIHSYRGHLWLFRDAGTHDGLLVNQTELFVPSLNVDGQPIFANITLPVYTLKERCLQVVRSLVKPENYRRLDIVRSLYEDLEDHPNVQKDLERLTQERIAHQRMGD
assaySummary: NanoBRET ternary complex formation assay NUDT5 and the respective E3 ligase (VHL or CRBN) in HEK293 cells
Assay type: cell-based
appliedConditions: HEK293, 20 h, Supplementary Table 3
measurementName: Ternary complex formation below 1 µM (20 h)

compound	testSystem	value
Cn1c(=O)c2c(nc(N3CCN(CC4CCN(c5cccc6c5C(=O)N(C5CCC(=O)NC5=O)C6=O)CC4)CC3)n2Cc2nnc(-c3ccc(Cl)c(Cl)c3)o2)n(C)c1=O (centres unmarked)	NUDT5 and the respective E3 ligase (Homo sapiens, UniProt P40337+Q9UKK9)	No
Cn1c(=O)c2c(nc(N3CCN(CC4CCN(c5cc6c(cc5F)C(=O)N(C5CCC(=O)NC5=O)C6=O)CC4)CC3)n2Cc2nnc(-c3ccc(Cl)c(Cl)c3)o2)n(C)c1=O (centres unmarked)	NUDT5 and the respective E3 ligase (Homo sapiens, UniProt P40337+Q9UKK9)	No
Cn1c(=O)c2c(nc(N3CCN(CC4CCN(c5ccc6c(c5)C(=O)N(C5CCC(=O)NC5=O)C6=O)CC4)CC3)n2Cc2nnc(-c3ccc(Cl)c(Cl)c3)o2)n(C)c1=O (centres unmarked)	NUDT5 and the respective E3 ligase (Homo sapiens, UniProt P40337+Q9UKK9)	Yes
Cn1c(=O)c2c(nc(N3CCN(CCC4CCN(c5ccc6c(c5)C(=O)N(C5CCC(=O)NC5=O)C6=O)CC4)CC3)n2Cc2nnc(-c3ccc(Cl)c(Cl)c3)o2)n(C)c1=O (centres unmarked)	NUDT5 and the respective E3 ligase (Homo sapiens, UniProt P40337+Q9UKK9)	Yes

We next turn to a different compound, shown below.
// sample Cn1c(=O)c2c(nc(N3CCN(CC4CCN(c5ccc6c(c5)C(=O)N(C5CCC(=O)NC5=O)C6=O)C4)CC3)n2Cc2nnc(-c3ccc(Cl)c(Cl)c3)o2)n(C)c1=O (centres unmarked) , its Ternary complex formation below 1 µM (20 h) was No
